- ASSAYED TARGET: GlcNAc(b1-4)GlcNAc(b1-4)GlcNAc
- ASSAY NAME: glycan array binding signal (z-score within array); higher = stronger binding
- SETTINGS: glycan notation: IUPAC condensed, linker removed
The full list was thinned out, with the strongest signals kept by preference.
PARAMETER MEASURED: glycan array binding signal (z-score)
Give the value as a plain number.

# BINDER, DATA VALUE
rows = [
    ("KISKRILTGKK [NK11 (Sus scrofa)]", -0.597),
]

Measured glycan array binding signal (z-score), CLECb-Precomplexed (Mus musculus), P43025 (protein) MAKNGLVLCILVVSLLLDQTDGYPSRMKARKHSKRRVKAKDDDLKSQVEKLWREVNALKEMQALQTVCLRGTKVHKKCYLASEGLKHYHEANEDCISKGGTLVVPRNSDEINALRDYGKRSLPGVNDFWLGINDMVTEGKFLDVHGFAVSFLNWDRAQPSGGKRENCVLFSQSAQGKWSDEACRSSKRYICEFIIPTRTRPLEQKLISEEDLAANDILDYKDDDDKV : -0.15

src = the supplement of paper PMC8728848
